The measurements presented in this section are drawn from ChEMBL document CHEMBL3407440.

experiment description: Cmax in CD1 male mouse at 50 mg/kg, po
Type: ADME, organism-based
Design: dose 50 mg/kg, route oral
assay conditions: in vivo
readout kind: Cmax (ng/mL)

- CN1C/C(=C\c2ccccn2)C(=O)/C(=C/c2ccccn2)C1: 131

###

experiment description: Tmax in Swiss Webster male mouse at 12.5 mg/kg, ip
Assay type: ADME, organism-based
Parameters: dose 12.5 mg/kg, route intraperitoneal
assay conditions: in vivo
readout kind: Tmax (min)

• O=C1/C(=C/c2ccccn2)CNC/C1=C\c1ccccn1 = 15

###

System: Mycobacterium tuberculosis
experiment description: Antituberculosis activity against Mycobacterium tuberculosis H37Rv assessed as growth inhibition after 72 hrs by liquid culture assay
Type: functional, organism-based
pIC50: −log10 of the molar value.
The following compounds are listed with their measured pIC50 values.
readout kind: pIC50

* CN1C/C(=C\c2ccccn2)C(=O)/C(=C/c2ccccn2)C1 | 5.00
* O=C1/C(=C/c2ccccc2F)CNC/C1=C\c1ccccc1F | 4.70
